Below, each entry is listed with its recorded DC50.
# system-name: SHP2 protein (Homo sapiens, UniProt Q06124)
# Sequence (Q06124 1-593): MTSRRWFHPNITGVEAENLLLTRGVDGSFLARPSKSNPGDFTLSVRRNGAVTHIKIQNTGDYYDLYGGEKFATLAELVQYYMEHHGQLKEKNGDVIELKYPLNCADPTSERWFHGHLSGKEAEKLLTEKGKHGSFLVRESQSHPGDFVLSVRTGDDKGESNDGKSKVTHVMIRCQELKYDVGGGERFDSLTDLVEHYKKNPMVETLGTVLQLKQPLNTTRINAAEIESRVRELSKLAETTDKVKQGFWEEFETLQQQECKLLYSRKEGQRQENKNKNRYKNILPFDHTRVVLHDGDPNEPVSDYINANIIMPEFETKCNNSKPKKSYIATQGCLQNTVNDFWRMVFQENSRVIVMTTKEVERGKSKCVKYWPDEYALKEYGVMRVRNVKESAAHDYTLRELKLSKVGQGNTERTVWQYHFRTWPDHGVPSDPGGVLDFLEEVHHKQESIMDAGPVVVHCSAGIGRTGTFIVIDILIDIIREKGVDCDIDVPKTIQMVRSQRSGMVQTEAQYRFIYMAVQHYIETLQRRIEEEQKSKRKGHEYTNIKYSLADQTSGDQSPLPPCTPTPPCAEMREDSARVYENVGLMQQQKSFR
# experiment: Degradation activity on SHP2 protein in MV-411 cells (Western blot, DC50)
# Assay type: cell-based
# Set-up: endogenous in cells
# protocol-conditions: MV411 cells, 24 hours, read-out: Degradation activity for differenct cell lines MV411 (DC50)

Could you share which DC50 value was measured for CC1(N)CCN(c2cnc(Sc3cccc(NC(=O)CCCCCCOC4CC5CN(c6ccc(C(=O)NCc7ccc8c(c7)CN(C7CCC(=O)NC7=O)C8=O)nn6)CC5C4)c3)cn2)CC1 (centres unmarked) ?
< 100 nM

Which DC50 is listed for NC1CCN(c2cnc(Sc3cccc(NC(=O)CCCCN4CC5(CCN(c6ccc(C(=O)NCc7ccc8c(c7)CN(C7CCC(=O)NC7=O)C8=O)nn6)C5)C4)c3)cn2)CC1F (centres unmarked) ?
> 1000 nM

###

# system-name: SHP2 protein (Homo sapiens, UniProt Q06124)
# experiment: Degradation activity on SHP2 protein in MV-411 cells (Western blot, DC50)
# Format: cell-based
# Parameters: endogenous in cells
# protocol-conditions: MV411 cells, 24 hours, read-out: Degradation activity for differenct cell lines MV411 (DC50)
# Description: […] (3) After 24 hours of cultivation, the cells were lysed using RIPA cell lysate, and the proteins were extracted. The protein concentration was measured using a BCA assay kit. […] (6) The images were analyzed with Image J grayscale, and the degradation ratio of protein bands in the test group was calculated, based on the negative control group (DMSO) (100%). […]
reported-metric: DC50

CC1(N)CCN(c2cnc(Sc3cccc(NC(=O)CCCCCCCOC4CCN(c5ncc(C(=O)Nc6ccc7c(c6)C(=O)N(C6CCC(=O)NC6=O)C7)cn5)CC4)c3)cn2)CC1 (stereo not drawn) ... > 1000 nM
CC1(N)CCN(c2cnc(Sc3cccc(NC(=O)CCCCCCCO[C@H]4CCN(c5ccc(C(=O)NCc6ccc7c(c6)CN(C6CCC(=O)NC6=O)C7=O)nn5)C4)c3)cn2)CC1 (stereo partly drawn) ... < 100 nM

# next molecule below
Could you share which DC50 value was measured for CN[C@H](C)C(=O)N[C@@H](C(=O)N1C[C@@H](NC(=O)c2ccc(N3CC4CCC(C3)N4CCCCCCCCC(=O)Nc3cccc(Sc4cnc(N5CCC(N)C(F)C5)cn4)c3)nn2)C[C@@H]1C(=O)Nc1c(F)cccc1F)C(C)(C)C (stereo partly drawn) ?
> 1000 nM
